Target or test system: human TLR9 (Homo sapiens, UniProt Q9NR96)
Sequence (Q9NR96 26-1032): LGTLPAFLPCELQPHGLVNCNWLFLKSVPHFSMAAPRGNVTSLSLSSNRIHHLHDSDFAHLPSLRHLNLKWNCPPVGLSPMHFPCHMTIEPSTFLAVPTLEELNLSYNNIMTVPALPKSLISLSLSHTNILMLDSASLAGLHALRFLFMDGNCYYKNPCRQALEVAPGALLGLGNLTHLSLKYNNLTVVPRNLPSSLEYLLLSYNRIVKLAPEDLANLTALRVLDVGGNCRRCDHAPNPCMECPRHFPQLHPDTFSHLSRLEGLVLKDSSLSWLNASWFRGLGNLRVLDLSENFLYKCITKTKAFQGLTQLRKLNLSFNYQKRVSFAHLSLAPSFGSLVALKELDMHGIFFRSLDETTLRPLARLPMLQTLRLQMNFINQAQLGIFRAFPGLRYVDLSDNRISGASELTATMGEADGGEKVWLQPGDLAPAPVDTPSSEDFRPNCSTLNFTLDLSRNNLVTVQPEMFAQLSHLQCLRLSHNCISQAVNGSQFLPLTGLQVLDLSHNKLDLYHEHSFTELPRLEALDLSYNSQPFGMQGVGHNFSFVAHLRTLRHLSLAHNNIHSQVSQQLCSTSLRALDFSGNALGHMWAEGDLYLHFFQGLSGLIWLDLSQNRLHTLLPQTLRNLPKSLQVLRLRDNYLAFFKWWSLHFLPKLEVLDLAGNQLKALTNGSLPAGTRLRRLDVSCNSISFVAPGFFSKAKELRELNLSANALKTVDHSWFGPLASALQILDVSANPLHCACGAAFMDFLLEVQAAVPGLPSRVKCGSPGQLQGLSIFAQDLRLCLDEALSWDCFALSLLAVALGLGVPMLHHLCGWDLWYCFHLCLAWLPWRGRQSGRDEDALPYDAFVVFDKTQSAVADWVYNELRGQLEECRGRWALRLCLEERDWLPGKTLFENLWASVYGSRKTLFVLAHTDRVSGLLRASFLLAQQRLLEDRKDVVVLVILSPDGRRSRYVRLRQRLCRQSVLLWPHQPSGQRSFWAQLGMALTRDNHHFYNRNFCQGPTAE
Test description: TLR9 inhibition reporter assay (HEK-Blue SEAP)
Measurement parameters: HEK-Blue cells overexpressing human TLR9, stimulated with ODN2006 5 nM, 22 hour incubation
Reported endpoint: log10(IC50) (log10 of the value in nM)

# Line notation, Reported endpoint, Reported result
rows = [
    ("COc1ccc(-c2[nH]c3ccc(OCC(=O)N[C@@H]4CCCNC4)cc3c2C(C)C)cc1OC", "log10(IC50)", 3.33),
    ("Cc1cc(-c2[nH]c3ccc(O[C@H]4CCCN(CC(=O)N(C)C)C4)cc3c2C(C)C)cn2ncnc12", "log10(IC50)", 3.75),
    ("Cc1cc(-c2[nH]c3ccc(O[C@@H]4CCNC4)cc3c2C(C)C)ccn1", "log10(IC50)", 3.28),
    ("CCc1c(-c2ccnc(C)c2)[nH]c2ccc(OCCN3CCCC3)cc12", "log10(IC50)", 2.89),
    ("Cc1cc(-c2[nH]c3ccc(OC4CCN(CC(C)(C)O)CC4)cc3c2C(C)C)cn2ncnc12", "log10(IC50)", 3.64),
    ("Cc1cc(-c2[nH]c3ccc(OCCN(C)C)cc3c2C(C)C)ccn1", "log10(IC50)", 3.28),
    ("Cc1cc(-c2[nH]c3ccc(OCC4CCN(CCO)CC4)cc3c2C(C)C)cc(C)n1", "log10(IC50)", 2.56),
    ("CCc1c(-c2ccnc(C)c2)[nH]c2ccc(OC3CCN(C)CC3)cc12", "log10(IC50)", 3.03),
]

###

Target or test system: human TLR7 (Homo sapiens)
Construct: host or cells: HEK-Blue cells
Sequence (Q9NYK1 27-1049): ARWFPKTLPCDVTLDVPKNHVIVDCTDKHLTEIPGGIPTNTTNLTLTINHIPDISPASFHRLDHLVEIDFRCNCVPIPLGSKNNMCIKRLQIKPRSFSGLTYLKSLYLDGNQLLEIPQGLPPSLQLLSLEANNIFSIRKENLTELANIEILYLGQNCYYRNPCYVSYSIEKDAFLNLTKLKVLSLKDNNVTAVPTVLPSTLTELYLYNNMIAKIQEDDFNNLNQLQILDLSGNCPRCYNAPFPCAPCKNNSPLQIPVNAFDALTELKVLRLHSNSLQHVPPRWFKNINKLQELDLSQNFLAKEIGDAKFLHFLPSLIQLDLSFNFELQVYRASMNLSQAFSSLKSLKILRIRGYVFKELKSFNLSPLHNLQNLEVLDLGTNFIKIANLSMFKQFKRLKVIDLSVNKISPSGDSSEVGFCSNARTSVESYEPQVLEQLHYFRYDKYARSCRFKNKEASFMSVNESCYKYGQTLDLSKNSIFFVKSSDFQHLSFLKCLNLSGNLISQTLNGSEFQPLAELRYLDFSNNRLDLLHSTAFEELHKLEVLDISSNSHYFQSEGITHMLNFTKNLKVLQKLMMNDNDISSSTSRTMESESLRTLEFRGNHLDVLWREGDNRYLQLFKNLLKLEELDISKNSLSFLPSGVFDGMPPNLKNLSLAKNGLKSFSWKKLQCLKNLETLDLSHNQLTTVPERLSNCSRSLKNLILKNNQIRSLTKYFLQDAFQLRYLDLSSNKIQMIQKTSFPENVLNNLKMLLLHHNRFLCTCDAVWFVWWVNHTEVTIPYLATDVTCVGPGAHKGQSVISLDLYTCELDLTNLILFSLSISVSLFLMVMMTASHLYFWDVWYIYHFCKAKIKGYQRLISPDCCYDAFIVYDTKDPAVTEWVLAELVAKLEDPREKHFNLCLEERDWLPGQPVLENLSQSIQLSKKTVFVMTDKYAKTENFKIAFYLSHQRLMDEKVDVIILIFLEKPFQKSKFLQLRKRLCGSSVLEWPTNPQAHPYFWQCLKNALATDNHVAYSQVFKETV
Test description: TLR7 inhibition reporter assay (HEK-Blue SEAP)
Type: cell-based
Measurement parameters: HEK-Blue cells overexpressing human TLR7, stimulated with gardiquimod 7.5 μM, 22 hour incubation
pIC50: −log10 of the molar value.
Reported endpoint: pIC50

# Compound, Target or test system, Reported result
records = [
    ("CNC(=O)CN1CCC(COc2ccc3[nH]c(-c4cc(C)c(=O)n(C)c4)c(C(C)C)c3c2)CC1 [Example 111]", "human TLR7 (Homo sapiens)", 7.85),
    ("Cc1cc(-c2[nH]c3ccc(OC4CCN(CC(=O)N(C)C)CC4)cc3c2C(C)C)cc(C)n1 [Example 79]", "human TLR7 (Homo sapiens)", 8.10),
    ("CNC(=O)CN1CCC(COc2ccc3[nH]c(-c4cc(C)nc(C)c4)c(C(C)C)c3c2)CC1 [Example 110]", "human TLR7 (Homo sapiens)", 8.02),
    ("COCCN1CCC(Oc2ccc3[nH]c(-c4cc(C)nc(C)c4)c(C(C)C)c3c2)CC1 [Example 75]", "human TLR7 (Homo sapiens)", 7.98),
]

Data provenance: patent US12030878B2
